The reported numbers originate from ChEMBL document CHEMBL3988442.

tested on: Mycobacterium tuberculosis; assay: Cornell - Phenotypic assay to identify agents that inhibit growth of Mycobacterium tuberculosis; type: functional; set-up: scale not given: direction of the effect not stated beside the values; settings: 10 mM as filed; unlikely as a test dose
About 900 (1.7%) of roughly 53,000 compounds showed an effect of 50% or more. This excerpt belongs to a sample that is enriched for strong results.
Kindly supply the reported Percent Effect values for the records listed here.
Answers are plain numbers, in %.

Please review the following examples before continuing.
[[record]]
compound = "CN1CCCC1c1cncc(C(=O)NCCN2CCCCC2)n1 (stereo not drawn)"
test_value = 5.104

[[record]]
compound = "N#Cc1cccc(S(=O)(=O)Nc2c(F)cccc2N2CCCC2)c1"
test_value = 53.51


Attention now turns to another entry.
QUERY: Looking for the measured Percent Effect of CN(C(=O)C1(C#N)CCCCC1)c1nccs1 , can you help?
RESULT: 17.67

###

test system: Mycobacterium tuberculosis; experiment: Cornell - Phenotypic assay to identify agents that inhibit growth of Mycobacterium tuberculosis; type: functional; parameters: scale not given: direction of the effect not stated beside the values; details: 10 mM as filed; unlikely as a test dose
About 900 (1.7%) of roughly 53,000 compounds showed an effect of 50% or more. This excerpt belongs to a sample that is enriched for strong results.
reported_metric: Percent Effect (%)
Numbers only, in %.

[[record]]
compound = "Cc1ccc(CCCC(=O)N(C)CCN2CCOCC2)cc1"
tested_system = "Mycobacterium tuberculosis"
reported_metric = "Percent Effect"
measurement_unit = "%"
test_value = -37.37

[[record]]
compound = "COCC(O)CN(C)c1ccnc2cc(Br)ccc12 (configuration not stated)"
tested_system = "Mycobacterium tuberculosis"
reported_metric = "Percent Effect"
measurement_unit = "%"
test_value = 6.843

[[record]]
compound = "CC(=O)NCC1CCN(c2ccnc3ccc(Br)cc23)CC1"
tested_system = "Mycobacterium tuberculosis"
reported_metric = "Percent Effect"
measurement_unit = "%"
test_value = 9.267

[[record]]
compound = "O=C(NCCCN1CCOCC1)c1ccc(-n2ccc3ccccc32)s1"
tested_system = "Mycobacterium tuberculosis"
reported_metric = "Percent Effect"
measurement_unit = "%"
test_value = -5.378

[[record]]
compound = "O=C(O)Cn1nc(-c2ccccc2F)ccc1=O"
tested_system = "Mycobacterium tuberculosis"
reported_metric = "Percent Effect"
measurement_unit = "%"
test_value = 3.999


Provide the reported Percent Effect of each entry below, same order.
1. CCCC(=O)N(CCCN1CCOCC1)c1nc2c(F)cccc2s1.Cl
2. Cc1nc2c(c(NCc3cnc4c(c3)CCC4)n1)CNC2
3. CCOc1cc(CN(C)CCCC#N)ccc1OC(F)F
4. CC1CCN(c2ccnc3ccc(Br)cc23)CC1
5. COC(=O)C(NC(=O)c1ccc(N(C)C)nc1)c1ccccc1 (configuration not stated)
6. CN(C)C[C@@H]1C[C@@H]2CN(C(=O)Cc3cccs3)CC[C@@H]2N1C
7. CCCC(=O)N(CCCN1CCOCC1)c1nc2c(C)ccc(Cl)c2s1.Cl

RESULT:
1: 7.328; 2: 4.431; 3: 7.532; 4: 84.63; 5: 107.9; 6: -13.85; 7: 110.2

###

test system: Mycobacterium tuberculosis; test: Cornell - Phenotypic assay to identify agents that inhibit growth of Mycobacterium tuberculosis; type: functional; parameters: scale not given: direction of the effect not stated beside the values; settings: 10 mM as filed; unlikely as a test dose
Hit rate of the full screen: of about 53,000 compounds, about 900 (1.7%) showed an effect of 50% or more. The sample as a whole holds a higher share of strong results than the screen did.
reported_metric: Percent Effect (%)
Give bare numbers, in %.

Please review the following examples before continuing.
[[record]]
compound = "CCOC(C)c1nc(Cn2cc(-n3cccc3)cn2)cs1 (stereo not drawn)"
reported_metric = "Percent Effect"
test_value = 56.69

[[record]]
compound = "CN(C1CCCCC1)S(=O)(=O)N1CCN(Cc2ccco2)CC1"
reported_metric = "Percent Effect"
test_value = 2.513


QUERY: Looking for the measured Percent Effect of CC(C)N1CC2(CCCN(c3ccccn3)C2)CCC1=O (stereo not drawn) , can you help?
RESULT: 8.106
